# measured.on: Small conductance calcium-activated potassium channel protein 2 (Homo sapiens, UniProt Q9H2S1)
# Sequence (Q9H2S1 whole entry): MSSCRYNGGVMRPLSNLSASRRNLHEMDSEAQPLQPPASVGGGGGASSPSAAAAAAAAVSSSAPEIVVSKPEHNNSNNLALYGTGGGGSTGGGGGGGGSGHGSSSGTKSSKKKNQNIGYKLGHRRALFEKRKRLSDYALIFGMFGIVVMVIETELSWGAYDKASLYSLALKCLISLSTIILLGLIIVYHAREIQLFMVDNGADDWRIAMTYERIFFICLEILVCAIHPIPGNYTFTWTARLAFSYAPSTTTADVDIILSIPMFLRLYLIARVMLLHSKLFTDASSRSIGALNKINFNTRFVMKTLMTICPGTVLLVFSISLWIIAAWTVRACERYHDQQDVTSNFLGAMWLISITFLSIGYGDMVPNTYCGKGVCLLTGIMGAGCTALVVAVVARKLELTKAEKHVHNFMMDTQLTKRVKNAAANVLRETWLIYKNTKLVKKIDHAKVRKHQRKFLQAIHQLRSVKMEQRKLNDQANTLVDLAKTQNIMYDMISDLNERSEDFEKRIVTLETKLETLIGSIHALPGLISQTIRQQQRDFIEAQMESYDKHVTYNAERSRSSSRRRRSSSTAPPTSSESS
# measurement.notes: Displacement of [125I]apamin from human SK2 expressed in HEK293 cells assessed as inhibition constant incubated for 1 hr by liquid scintillation counting analysis
# Type: cell-based
quantity.measured: Ki (µM)
The answer is to be given in µM; state only the numeric part.

Form field: reported Ki of "COc1cc2c3cc1Oc1c(OC)c(OC)cc4c1[C@@H](Cc1ccc(O)c(c1)Oc1ccc(cc1)C[C@@H]3N(C)CC2)N(C)CC4" 0.284

###

# measured.on: Small conductance calcium-activated potassium channel protein 3 (Homo sapiens, UniProt Q9UGI6)
# Sequence (Q9UGI6 whole entry): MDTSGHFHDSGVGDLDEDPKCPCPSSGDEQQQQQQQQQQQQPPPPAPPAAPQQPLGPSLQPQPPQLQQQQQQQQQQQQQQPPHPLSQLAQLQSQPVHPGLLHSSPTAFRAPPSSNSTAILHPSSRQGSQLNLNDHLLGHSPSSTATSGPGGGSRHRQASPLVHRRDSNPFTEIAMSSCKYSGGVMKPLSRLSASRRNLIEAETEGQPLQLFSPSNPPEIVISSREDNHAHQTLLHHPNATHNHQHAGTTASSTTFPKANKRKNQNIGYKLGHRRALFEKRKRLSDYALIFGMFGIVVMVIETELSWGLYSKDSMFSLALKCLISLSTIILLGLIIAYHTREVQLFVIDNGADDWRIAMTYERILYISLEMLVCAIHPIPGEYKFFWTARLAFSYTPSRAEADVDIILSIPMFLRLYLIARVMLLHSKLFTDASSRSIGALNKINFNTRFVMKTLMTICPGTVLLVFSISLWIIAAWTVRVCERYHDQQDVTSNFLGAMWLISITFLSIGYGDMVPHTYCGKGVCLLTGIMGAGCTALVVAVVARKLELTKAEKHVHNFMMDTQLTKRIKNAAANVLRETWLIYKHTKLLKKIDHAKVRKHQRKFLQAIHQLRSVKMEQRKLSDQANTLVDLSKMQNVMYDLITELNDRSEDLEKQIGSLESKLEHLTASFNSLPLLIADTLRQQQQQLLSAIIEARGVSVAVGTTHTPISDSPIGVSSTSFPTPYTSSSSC
# measurement.notes: Displacement of [125I]apamin from human SK3 expressed in HEK293 cells assessed as inhibition constant incubated for 1 hr by liquid scintillation counting analysis
# Format: cell-based
quantity.measured: pKi
Lab note — pKi values are minus log10 of concentrations in M.

Look at this compound and give its reported pKi. COc1cc2c3cc1Oc1c(OC)c(OC)cc4c1[C@@H](Cc1ccc(O)c(c1)Oc1ccc(cc1)C[C@@H]3N(C)CC2)N(C)CC4 [BERBAMINE] 6.17
